- Measured on: T1, GFP1 Right TAL-PBx (synthetic)
- T1 chain: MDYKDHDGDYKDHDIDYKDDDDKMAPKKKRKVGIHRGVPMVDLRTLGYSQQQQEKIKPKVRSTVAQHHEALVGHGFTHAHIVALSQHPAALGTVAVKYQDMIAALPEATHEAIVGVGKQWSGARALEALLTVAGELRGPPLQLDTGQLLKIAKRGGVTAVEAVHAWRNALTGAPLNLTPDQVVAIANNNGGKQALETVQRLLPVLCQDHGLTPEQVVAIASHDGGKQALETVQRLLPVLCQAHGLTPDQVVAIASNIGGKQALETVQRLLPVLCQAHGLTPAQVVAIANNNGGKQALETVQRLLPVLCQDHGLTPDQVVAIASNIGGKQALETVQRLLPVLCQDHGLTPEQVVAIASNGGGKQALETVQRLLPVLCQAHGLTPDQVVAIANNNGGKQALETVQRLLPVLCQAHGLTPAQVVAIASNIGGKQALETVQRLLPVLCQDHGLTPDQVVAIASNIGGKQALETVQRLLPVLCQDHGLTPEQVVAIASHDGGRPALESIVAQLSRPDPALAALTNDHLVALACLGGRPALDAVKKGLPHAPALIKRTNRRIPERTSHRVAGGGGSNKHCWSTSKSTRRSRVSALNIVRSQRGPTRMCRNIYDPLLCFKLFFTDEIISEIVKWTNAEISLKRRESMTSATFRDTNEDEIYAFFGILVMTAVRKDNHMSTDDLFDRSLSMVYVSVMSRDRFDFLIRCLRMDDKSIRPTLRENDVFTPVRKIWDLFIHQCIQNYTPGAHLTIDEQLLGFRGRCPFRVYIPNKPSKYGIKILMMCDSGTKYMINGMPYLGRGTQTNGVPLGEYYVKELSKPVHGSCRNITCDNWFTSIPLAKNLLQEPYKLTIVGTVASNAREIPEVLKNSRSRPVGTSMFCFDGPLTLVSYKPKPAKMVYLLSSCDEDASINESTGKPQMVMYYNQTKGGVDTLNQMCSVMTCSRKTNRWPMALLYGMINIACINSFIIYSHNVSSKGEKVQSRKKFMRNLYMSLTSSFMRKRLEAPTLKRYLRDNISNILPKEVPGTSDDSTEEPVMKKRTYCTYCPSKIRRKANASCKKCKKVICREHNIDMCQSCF
- Experiment description: cell_activity; HEK293T
- Assay conditions: tags: PBx fusion; chain copies: 2 (palindromic half-sites; inferred)
Assign Y whenever activity does not fall below 30 % GFP+ cells; assign N whenever it does.

Binder: GFP1 Right 13bp CTTAAG (dsDNA) DNA 1: TGCAGATGAACGCAATCTCACGGCTTAAGTACTGACCTGAAGTTCATCTGCA DNA 2: TGCAGATGAACTTCAGGTCAGTACTTAAGCCGTGAGATTGCGTTCATCTGCA
Assigned class: N
--
Binder: GFP1 Right 13bp CTTAAC (dsDNA) DNA 1: TGCAGATGAACGCAATCTCACGGCTTAACTACTGACCTGAAGTTCATCTGCA DNA 2: TGCAGATGAACTTCAGGTCAGTAGTTAAGCCGTGAGATTGCGTTCATCTGCA
Assigned class: N
--
Binder: GFP1 Right 13bp TTTAAA (dsDNA) DNA 1: TGCAGATGAACGCAATCTCACGGTTTAAATACTGACCTGAAGTTCATCTGCA DNA 2: TGCAGATGAACTTCAGGTCAGTATTTAAACCGTGAGATTGCGTTCATCTGCA
Assigned class: N
--
Binder: GFP1 Right 12bp CTTAAA (dsDNA) DNA 1: TGCAGATGAACGCAATCTCCGGCTTAAATACTGACTGAAGTTCATCTGCA DNA 2: TGCAGATGAACTTCAGTCAGTATTTAAGCCGGAGATTGCGTTCATCTGCA
Assigned class: Y
--
Binder: GFP1 Right 13bp TTTAAG (dsDNA) DNA 1: TGCAGATGAACGCAATCTCACGGTTTAAGTACTGACCTGAAGTTCATCTGCA DNA 2: TGCAGATGAACTTCAGGTCAGTACTTAAACCGTGAGATTGCGTTCATCTGCA
Assigned class: Y
--
Binder: GFP1 Right 13bp CTTAAA (dsDNA) DNA 1: TGCAGATGAACGCAATCTCACGGCTTAAATACTGACCTGAAGTTCATCTGCA DNA 2: TGCAGATGAACTTCAGGTCAGTATTTAAGCCGTGAGATTGCGTTCATCTGCA
Assigned class: Y
